- experiment_description: small-molecule microarray binders of probe aDKK1, primary screen, biochemical, biotinylated probe, 635/667 nm fluorescence (AID 1099);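 note: score merges 667nm spot fluorescence with signal to noise across triplicate slides; reference of the scale not given here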
- measurement_context: higher = more signal
Returns one of True or False; True when composite z-score is >= -0.2.

Consider the worked cases shown below.
>  <compound>
C#CCCCON=C1C[C@@H](O)[C@@H](O)[C@@H]2[C@@H]3C(=O)N(CC)C(=O)[C@@H]3CC[C@H]12

>  <label_value>
True

$$$$
>  <compound>
CCOC(=O)[C@H](Cc1ccccc1)NC(=O)CCC1CC(OC(=O)NCCc2ccc(F)cc2)CC2(CCCC(COC(=O)NCCOc3ccccc3)O2)O1 (some centres undefined)

>  <label_value>
True

$$$$
>  <compound>
CCN1C(=O)[C@H]2[C@H]3[C@H](O)[C@H](O)CC(=NNC(=O)OCc4ccccc4)[C@@H]3CC[C@H]2C1=O

>  <label_value>
True

$$$$
>  <compound>
CC(C)=CCCC(C)=CCON=C1C[C@@H](O)[C@@H](O)[C@@H]2[C@@H]3C(=O)N([C@@H](C)c4ccccc4)C(=O)[C@@H]3CC[C@@H]12

>  <label_value>
False

$$$$
>  <compound>
CCOC(=O)CCN1C(=O)[C@H]2[C@H]3[C@H](O)[C@H](O)CC(=NNC(=O)OCc4ccc(OC)cc4)[C@H]3CC[C@H]2C1=O

>  <label_value>
True

$$$$

Please check the record CCN1C(=O)[C@H]2[C@H]3[C@H](O)[C@H](O)CC(=NOCC(C)C)[C@H]3CC[C@H]2C1=O and state if its composite z-score is at or above -0.2.
False

Please check the record CC(C)[C@@H](OCc1ccccc1)[C@H](C)CON=C1[C@H]2CCn3c(=O)n(-c4ccccc4)c(=O)n3[C@H]2[C@H](O)[C@@H]2O[C@H]12 and state if its composite z-score is at or above -0.2.
True

Please check the record COC(=O)CC=C[C@@H](C)[C@@H](C=NOC(C)CN1CCCCc2nc(C)c(C)cc21)NS(=O)(=O)c1ccc(C)cc1 (some centres undefined) and state if its composite z-score is at or above -0.2.
True

Please check the record CC(CCN1CCCc2nc(C)c(C)cc21)=NO[C@H](C)c1cn([C@H](CO)Cc2ccccc2)nn1 and state if its composite z-score is at or above -0.2.
False

Hello, the source for this data is PubChem BioAssay, in case you need it.
